- Measured Target: Cruzipain (Trypanosoma cruzi)
- Assay Method Text: Confirmation qHTS Assay for Inhibitors of Cruzain; also: potency is read from the fitted curve at half-maximal effect; nearly all actives have a fitted effect of over 40% in size
- Applied Conditions: purified cruzain, Z-FR-AMC fluorescence, 0.01% Triton
Records with an inconclusive call do not appear. Calls of active or inactive are those of the source. Calls follow the shape of the dose curve; as a rule, active = well fitted inhibition curve with a large enough effect; inconclusive = small, poorly fitted or top-dose-only effect; inactive = no such curve, though single readings can be large or run the other way.
# Lookup of reported Potency keyed by entry

Compound: COc1ccc(C)cc1NC(=O)C(OC(=O)CNC(=O)c1ccccc1)c1ccccc1 (stereo not given)
Measured Target: Cruzipain (Trypanosoma cruzi)
Assay Value: 8.91 µM (active)
--
Compound: N#Cc1nc(NCC2CC2)nc(Nc2ccccc2)n1
Measured Target: Cruzipain (Trypanosoma cruzi)
Assay Value: 0.891 µM (active)
--
Compound: O=C(NC1CCCC1)c1ccc2nc(-c3ccco3)c(-c3ccco3)nc2c1
Measured Target: Cruzipain (Trypanosoma cruzi)
Assay Value: 8.91 µM (active)
--
Compound: O=C(CNC(=O)c1ccc2ccccc2c1)OC(C(=O)Nc1cc(C(F)(F)F)ccc1Cl)c1ccccc1 (stereo not given)
Measured Target: Cruzipain (Trypanosoma cruzi)
Assay Value: 4.47 µM (active)
--
Compound: O=C(CNC(=O)C1CCCCC1)OC(C(=O)Nc1cc(C(F)(F)F)ccc1Cl)c1ccccc1 (stereo not given)
Measured Target: Cruzipain (Trypanosoma cruzi)
Assay Value: 5.01 µM (active)
--
Compound: Cc1cccc(C)c1OCCn1c(CCNC(=O)C2CCCCC2)nc2ccccc21
Measured Target: Cruzipain (Trypanosoma cruzi)
Assay Value: 1.12 µM (active)
--
Compound: O=C(COC(=O)CNC(=O)c1ccccc1)Nc1cc(C(F)(F)F)ccc1Cl
Measured Target: Cruzipain (Trypanosoma cruzi)
Assay Value: 11.2 µM (active)
--
Compound: O=C(CNC(=O)C1CCCCC1)OC(C(=O)c1ccccc1)c1ccccc1 (stereo not given)
Measured Target: Cruzipain (Trypanosoma cruzi)
Assay Value: 1.26 µM (active)

API: the following record is the query input.
For N#Cc1c(N2CCOCC2)nc(-c2ccco2)c2c1CCCC2 the compound record lists Potency as 3.98 µM (active)

---

- Measured Target: Cruzipain (Trypanosoma cruzi) (UniProt P25779)
- Sequence (P25779 123-467 limits assumed): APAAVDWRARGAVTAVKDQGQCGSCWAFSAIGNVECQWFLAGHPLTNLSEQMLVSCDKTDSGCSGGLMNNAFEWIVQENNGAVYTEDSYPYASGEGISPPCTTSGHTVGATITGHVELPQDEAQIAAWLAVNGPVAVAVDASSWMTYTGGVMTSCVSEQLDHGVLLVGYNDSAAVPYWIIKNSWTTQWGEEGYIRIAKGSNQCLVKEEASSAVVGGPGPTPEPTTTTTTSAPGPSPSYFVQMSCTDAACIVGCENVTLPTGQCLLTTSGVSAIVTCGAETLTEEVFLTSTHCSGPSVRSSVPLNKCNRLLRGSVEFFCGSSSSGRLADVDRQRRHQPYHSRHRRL
- Assay Method Text: Confirmation qHTS Assay for Inhibitors of Cruzain; also: potency is read from the fitted curve at half-maximal effect; nearly all actives have a fitted effect of over 40% in size
- Applied Conditions: purified cruzain, Z-FR-AMC fluorescence, 0.01% Triton
Inconclusive results are not listed. Activity calls are given as the source filed them. Calls follow the shape of the dose curve; as a rule, active = well fitted inhibition curve with a large enough effect; inconclusive = small, poorly fitted or top-dose-only effect; inactive = no such curve, though single readings can be large or run the other way.
Observation Type: Potency

Here's what some known entries look like.
Molecule Smiles: O=C(CNC(=O)C1CCCCC1)OCC(=O)c1cccc(Cl)c1
Potency: 2.82 µM (active)

Molecule Smiles: COc1ccccc1C(=O)NCC(=O)OCC(=O)c1cccc2ccccc12
Potency: 31.6 µM (active)

Molecule Smiles: N#Cc1nc(Nc2cc(F)cc(F)c2)c2ncn(C3CCCC3)c2n1
Potency: 0.0224 µM (active)

Molecule Smiles: CCNc1nc(C#N)nc2c1ncn2-c1cc(F)cc(F)c1
Potency: 0.224 µM (active)

Molecule Smiles: Cc1ccc(C(=O)COC(=O)CNC(=O)COc2ccccc2C)cc1C
Potency: 14.1 µM (active)

Molecule Smiles: CCc1ccc(OCCCCn2c(CCNC(=O)C3CCCCC3)nc3ccccc32)cc1
Potency: 1.58 µM (active)

Molecule Smiles: N#Cc1nc(N2CCCC2)nc(N2CCCC2)n1
Potency: 7.08 µM (active)

Molecule Smiles: N#Cc1nc(Nc2ccc(-c3ccccc3)cc2)nc(NC2CCCC2)n1
Potency: 3.98 µM (active)

Molecule Smiles: Cc1ccccc1OCCCn1c(CCNC(=O)C2CCCCC2)nc2ccccc21
Potency: 1 µM (active)

Molecule Smiles: Cc1cccc(C(=O)NCC(=O)OCC(=O)c2ccc3ccccc3c2)c1
Potency: 12.6 µM (active)

// CCN1CCN(CCCNC(=O)c2cc3c(s2)-c2ccccc2OC3)CC1 : Potency value = 15.8 µM (active)

The reported measurements were obtained from PubChem BioAssay AID2158.
